# assay info: Inhibitory activity measured for Glyceraldehyde-3-phosphate dehydrogenase (GAPDH) in Leishmania. mexicana
pIC50: −log10 of the molar value.
experimental endpoint: pIC50

Example results:
{"compound": "Nc1ccc(CNc2ncnc3c2ncn3[C@@H]2O[C@H](CO)[C@@H](O)[C@H]2O)cc1", "experimental endpoint": "pIC50", "measured result": 2.51}
{"compound": "Nc1ncnc2c1ncn2[C@@H]1O[C@H](CO)[C@@H](O)[C@H]1NC(=O)c1cccc(O)c1", "experimental endpoint": "pIC50", "measured result": 3.07}
{"compound": "OCc1ccccc1Sc1ccccc1CNc1ncnc2c1ncn2C1O[C@H](CO)[C@@H](O)[C@H]1O (stereo partly drawn)", "experimental endpoint": "pIC50", "measured result": 3.47}
{"compound": "COc1cccc(C(=O)N[C@@H]2[C@H](O)[C@@H](CO)O[C@H]2n2cnc3c(NCc4ccccc4)ncnc32)c1", "experimental endpoint": "pIC50", "measured result": 4.80}
{"compound": "COc1cccc(C(=O)N[C@@H]2[C@H](O)[C@@H](CO)O[C@H]2n2cnc3c(N)ncnc32)c1", "experimental endpoint": "pIC50", "measured result": 3.10}

[A] OC[C@H]1OC(n2cnc3c(NC(c4ccccc4)c4ccccc4)ncnc32)[C@H](O)[C@@H]1O (stereo partly drawn)
[B] OC[C@H]1O[C@@H](n2cnc3c(NCc4ccccc4)ncnc32)[C@H](O)[C@@H]1O
IN: Looking at A and B , which one comes out lower in pIC50 terms? Mark your answer with the label of the selected entry.
OUT: B

From: ChEMBL document CHEMBL1131193
